- TARGET_UNDER_TEST: T1, CD27 expressed on the cell surface of HT1080_CD27 cells (human, UniProt P26842 20-260)
- T1 sequence (looked up): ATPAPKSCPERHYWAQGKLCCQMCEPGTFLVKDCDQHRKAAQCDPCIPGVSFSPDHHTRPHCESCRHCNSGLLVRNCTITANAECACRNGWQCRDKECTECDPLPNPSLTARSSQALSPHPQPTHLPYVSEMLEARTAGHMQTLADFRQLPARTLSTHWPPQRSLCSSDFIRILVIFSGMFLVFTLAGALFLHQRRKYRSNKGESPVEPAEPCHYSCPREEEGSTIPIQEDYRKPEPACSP
- EXPERIMENT_DESCRIPTION: cell-based or functional assay
REPORTED_METRIC: EC 50 (IL-8 release, cross-linked) (µg/mL)
Record the value in µg/mL, omitting the unit from your answer.

// worked examples, EC 50 (IL-8 release, cross-linked) included
P018.S.10.A.E01 (antibody, V domains shown) VH: QEQLVESGGGLVQPEGSLTLTCTATGIDFSTNYRSCWVRQAPGKGLEWIACIDTDDSDSTYYASWAKGRFTISKTSSTTVTLQMTSLTAADTATYFCTRAYTTSDYAWSFYLWGPGTLVTVSS VL: DLVMTQTPASVEAAVGGTVTIKCQTSQSISKFLNWYQQTPGQPPKLLIYRASTLESGVPSRFEGSGSGTEFTLTISDLESADAATYYCQCTYGGTSGSVWAFGGGTEVVVK = 0.722
P018.S.09.A.A02 (antibody, V domains shown, V regions on human Ig constant parts; also called AB27_143) VH: QSVEESGGRLVTPGTPLTLTCTASGFSLSNFYMSWVRQAPGKGLEWIGIISTGGSAYYASWAKGRFTSSKTSTTVDLQITSPTTEDTATYFCARGSGTDGAWLYYGIDLWGPGTLVTVSS VL: DVVMTQTPASVEAAVGGTVTIKCQASENIGHALAWYQQKPGQPPKLLIYRTSTLASGVPSRFSGSGSGTQFSLTISDLDSADAATYFCQINYGGGSGGYFAFGGGTEVVVK = 0.144
P018.S.10.A.F04 (antibody, V domains shown, V regions on human Ig constant parts; also called AB27_180) VH: QSVEESGGRLVTPGTPLTLTCTASGFYLSSHYMSWVRQAPGKGLEWIGIIYATGIASYANWAKGRFTISKTSTTVSLKMTSPTTEDTATYFCARYDSQDYYGYGNLWGPGTLVTVSS VL: AYDMTQTPASVEVAVGGTVTIKCQASQNIYNNLAWYQQKPGQRPKLLIYRASTLASGVSSQFKGSGSGTEYTLTISGVESADAATYYCQQGYSVHDVYNTFGGGTEVVVK = 1.27
P018.S.10.A.B03 (antibody, V domains shown, V regions on human Ig constant parts; also called AB27_168) VH: QSLEESGGRLVTPGTPLTLTCTASGFSLSSYDMGWVRQAPGKGLEWIGIISSSGSTYYASWAKGRFTISKTSSTTVDLKMTSLTTEDTATYFCARTSLDGNLWGQGTLVTVSS VL: AFEMTQTPSSVSEPVGGTVTIKCQASQSIYNYLSWYQQKPGQPPKLLIYDASALASGVPSRFKGSGSGTDFTLTISDLESADAATYYCQQDYSVSDVDNSFGGGTEVVVK = 1.94

Summary for this binder, P018.S.10.A.E04 (antibody, V domains shown) VH: QSLEESGGDLVKPGASLTLTCTASGFSFSSSYWICWVRQAPGKGLEWVACISAPGSGSTFDASWAKGRFTISKTSSTTVTLQMTSLTAADTATYFCARFYAGGSGDYFDLWGPGTLVTVSS VL: QIVMTQTPSSTSEPVGGTVSIKCQASQNIGSYLAWYQQKPGQPPKVLIYTTSDLASGVPSRFKGSGSGTQFTLTISDLESDDAATYYCLGVYGYSSDDVAFGGGTEVVVK : EC 50 (IL-8 release, cross-linked) is 0.234

The measured values listed here are drawn from patent US20210253725A1.
